# System: SF-295 CNS
# Method: NCI tumour cell line growth inhibition, 48 h
Value kind: TGI

compound="CN1CC[C@]23c4c5ccc(O)c4OC2c2[nH]ncc2C[C@H]3[C@H]1C5 (some centres undefined)" value_reported="> 100 µM"
compound=N#Cc1c(N)nc2n[nH]c(N)c2c1-c1ccccc1 value_reported="29.7 µM"
compound=Cc1ccc(NC(=O)c2ccc(NC3=C(Cl)C(=O)N(Cc4ccccc4)C3=O)cc2)cc1Cl value_reported="> 100 µM"

# input for lookup
State the recorded TGI for this entry: O=C(Nc1ccc(Cl)c(Cl)c1)C1C(=O)N(c2ccc(Cl)c(Cl)c2)C(=O)/C1=N\O (centres undefined)
> 100 µM

###

# System: SNB-19 CNS
# Method: NCI tumour cell line growth inhibition, 48 h; in the data active = GI50 below about 0.43 µM; inactive = the rest
Tick one outcome: active, inactive

Field: example entries. Status: answers known.
molecule=COC(=O)C1=Nc2ccc(F)cc2/C1=C/c1sc(=S)[nH]c1O classification=active
molecule="Nc1n[nH]c2ccc([C@@H]3Nc4c(F)cc5[nH]ncc5c4[C@H]4C5CCC(C5)[C@@H]34)cc12 (stereo partly specified)" classification=inactive

So what was the verdict on Cc1ccc(-c2nc(C(Cl)Cl)nc3cc(C)nn23)cc1 in this test?
inactive

Now the molecule CC(C)C/C(=N\NC(=O)c1ccncc1)c1cc(Cl)ccc1O
inactive

Another: CCN(CC)C(=O)CCCCCn1c2ccccc2c2c3c(c4c5ccccc5[nH]c4c21)C(=O)N(O)C3=O
inactive

Lookup c1ccc2c(c1)[O][Sn][O]2
inactive

###

# Tested on: SF-295 CNS
# Method: NCI tumour cell line growth inhibition, 48 h; in the data active = GI50 below about 0.43 µM; inactive = the rest
Thanks in advance; please answer with one of these: t (active), f (inactive)

Worked set:
molecule=CCOC(=O)C1=C(C)N(Cc2ccc(Cl)cc2Cl)[C@]2(C#N)C(O)=C(Cl)C(Cl)=C(O)[C@]12C#N classification=f
molecule="Nc1n[nH]c2ccc([C@@H]3Nc4c(F)cc5[nH]ncc5c4[C@H]4C5CCC(C5)[C@@H]34)cc12 (some centres undefined)" classification=t
molecule=Cc1ccc(NC(=O)c2ccc(NC3=C(Cl)C(=O)N(Cc4ccccc4)C3=O)cc2)cc1Cl classification=f

Which result was noted for this molecule in the test: Cc1ccccc1CNc1c2ccccc2nc2ccccc12
f

Please do the same for COc1ncc2cc1NS(=O)(=O)c1cccc(c1)C(=O)NCC1=CC=C(S1)c1ncnc3c1SC2=C3C as well.
t

Moving on to CC1=NN(c2nc(N)nc(/C=C\c3ccccc3)n2)C(C)(C)C1
f

Then what about the molecule CCOC(=O)c1cc2cc(OCc3ccccc3)ccc2[nH]1 ?
f

What do you have for O=C1C2C(C(=O)N1CC[Se][Se]CCN1C(=O)C3C(C1=O)[C@H]1C=C[C@@H]3C1)[C@H]1C=C[C@@H]2C1 (some centres undefined) ?
f

Same question, CCN(CC)Cc1cc(Nc2cc(C(F)(F)F)c(C#N)c3nc4ccccc4n23)ccc1O this time
f

###

Listed here are compounds together with their documented TGI.
# Tested on: MDA-MB-435
# Method: NCI tumour cell line growth inhibition, 48 h

compound=CO[C@]12C[C@@H](CNC(=O)c3cc(Br)c[nH]3)O[C@H]1NC(=O)N2 value_kind=TGI value_reported="> 100 µM"
compound="CSC1(Cc2ccccn2)C(=O)Nc2cccc([N+](=O)[O-])c21 (stereo not drawn)" value_kind=TGI value_reported="> 100 µM"
compound=Cn1cnnc1SC(F)(F)c1nc2ccccc2o1 value_kind=TGI value_reported="> 100 µM"

Tell me the measured TGI of COC(=O)[C@]1(C)CCCC2(C)C3=C(CCC21)CC1(CC3)SCCS1 (stereo partly drawn) , please.
> 10 µM

Now the same for COc1cccc(/C=C2/S/C(=N/Nc3nc(C)c(C(C)=O)s3)NC2=O)c1O
> 100 µM

Repeat for the following compound: CC(=O)c1sc2c(c1O)c(=O)n(-c1ccccc1)c(=S)n2-c1ccccc1
> 100 µM

NCC(Cc1ccccc1)P(=O)(O)O (stereo not drawn) ?
> 100 µM

Check CN1CC[C@]23c4c5ccc(O)c4OC2c2[nH]ncc2C[C@H]3[C@H]1C5 (stereo partly drawn) too.
> 100 µM

Numbers sourced from PubChem BioAssay (NCI).
